B1: TPR t1 (parent)
chain: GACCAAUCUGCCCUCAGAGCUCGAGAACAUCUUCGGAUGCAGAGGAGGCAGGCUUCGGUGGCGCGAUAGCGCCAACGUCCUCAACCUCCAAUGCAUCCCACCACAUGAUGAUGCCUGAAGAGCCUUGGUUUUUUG

Variants of: B1
experiment: polymerase ribozyme fitness, log enrichment relative to wild type (log ratio); higher = more active; in vitro selection for triplet polymerase activity
Where polymerase ribozyme fitness (log ratio) equals or exceeds -1, the correct label is label 1; where it does not, the label is label 0.

>>> assigned_class("G45U G71A G93A")
"label 0"
>>> assigned_class("C4A A95C C123G")
"label 0"
>>> assigned_class("A24G C62U C104A C115A G135C")
"label 0"
>>> assigned_class("G45C G65U G71A A74G")
"label 0"
>>> assigned_class("G77C A83C C85U U109C C114G")
"label 0"
>>> assigned_class("C56U C97A")
"label 0"
>>> assigned_class("G93U C101A G113A C115G")
"label 0"
>>> assigned_class("U7C C8G C79A G110A")
"label 0"
>>> assigned_class("G48U G93C A121G")
"label 1"
>>> assigned_class("U87G C94A G120U")
"label 1"
>>> assigned_class("G48U C49U A91C")
"label 0"
>>> assigned_class("C49A C53G C73U A74G A100U")
"label 0"
>>> assigned_class("G60C U81A A83C")
"label 0"
>>> assigned_class("C49U G60A C97G")
"label 0"
>>> assigned_class("C8A C123A C124U G127U")
"label 1"
>>> assigned_class("G10U C11G A29C C53A A74U")
"label 0"
>>> assigned_class("C13A A43C G93C")
"label 0"
>>> assigned_class("G17A C53A C124G")
"label 1"
>>> assigned_class("G48U C49U G60C A84U U129A U134G")
"label 0"
>>> assigned_class("A83C A84C")
"label 1"
>>> assigned_class("C13U G44A C79G G93U")
"label 0"
>>> assigned_class("A6U C11G U112A U126A")
"label 1"
>>> assigned_class("A16U U92A A111C")
"label 0"
>>> assigned_class("G25U A37U C40U G44U G47C C64A U106G U112A")
"label 0"
>>> assigned_class("G51U G60C")
"label 0"
>>> assigned_class("G10C G42U")
"label 0"
>>> assigned_class("A18U C70U U112C")
"label 0"
>>> assigned_class("C62U U133G")
"label 0"
>>> assigned_class("A6U C56A C94A U106A C124A")
"label 1"
